assay: SCD cohort PK after repeated dosing; format: in vivo, human; conditions: human, plasma, 150 mg, MAD-3 (150 mg QD) week 6, SCD patient 0001; read-out: Plasma (Cmax) Concentration
Property label: Cmax
Reply with a number, then the unit it belongs to.

response.value for O=Cc1c(O)cccc1OC[C@@H]1COCCN1C(=O)c1cccnc1CCO [Compound I] (field: Cmax) = 6980 ng/mL

====

experiment: SAD study in healthy volunteers: PK in plasma, whole blood, red blood cells; type: in vivo, human; conditions: human; HV single oral 1400 mg (Cohort 7); whole blood; geometric mean
Property label: AUC(0-inf) (µg·h/mL)
Numeric only. Scale: µg·h/mL

response.value for O=Cc1c(O)cccc1OC[C@@H]1COCCN1C(=O)c1cccnc1CCO (field: AUC(0-inf)) = 210000
